Measured values drawn from patent US12098148B2 for this set.

Target: human KEAP1 (N-term, residues 321-609) (Homo sapiens)
Assay: biochemical
measured_quantity: IC50 (nM)
Please respond with the number in nM and leave the unit unwritten.

What reported IC50 corresponds to "O=C(O)[C@H]1CCCC[C@H]1C(=O)N1CCc2c(Cl)ccc(OCc3nsc4ccccc34)c2[C@H]1CN1CCCC1=O" on human KEAP1 (N-term, residues 321-609) (Homo sapiens)?
8.4

What reported IC50 corresponds to "Cn1ccc(COc2ccc(Cl)c3c2[C@@H](CN2CC4(CC4)CC2=O)N(C(=O)[C@@H]2CCCC[C@]2(C)C(=O)O)CC3)cc1=O" on human KEAP1 (N-term, residues 321-609) (Homo sapiens)?
6.6

What reported IC50 corresponds to "O=C(O)[C@H]1CCCC[C@H]1C(=O)N1CCc2c(Br)ccc(O[C@H]3CCN(C(=O)c4cncs4)C3)c2[C@H]1CN1CCCC1=O" on human KEAP1 (N-term, residues 321-609) (Homo sapiens)?
9.1

What reported IC50 corresponds to "Cn1ncc(COc2ccc(Cl)c3c2[C@@H](CN2CC4(CC4)CC2=O)N(C(=O)[C@@H]2CCCC[C@]2(C)C(=O)O)CC3)n1" on human KEAP1 (N-term, residues 321-609) (Homo sapiens)?
6.6

What reported IC50 corresponds to "Cc1cc(COc2ccc(Cl)c3c2[C@@H](CN2Cc4ccccc4C2=O)N(C(=O)[C@@H]2CCCC[C@@H]2C(=O)O)CC3)no1" on human KEAP1 (N-term, residues 321-609) (Homo sapiens)?
11

What reported IC50 corresponds to "O=C(O)[C@H]1CCCC[C@H]1C(=O)N1CCc2c(Cl)ccc(OCc3noc4ncccc34)c2[C@H]1CN1CCCC1=O" on human KEAP1 (N-term, residues 321-609) (Homo sapiens)?
7.2

What reported IC50 corresponds to "Cc1cnn(C[C@@H]2c3c(OCc4nnn(C)c4C(F)F)ccc(Cl)c3CCN2C(=O)[C@@H]2CCCC[C@@H]2C(=O)O)c1" on human KEAP1 (N-term, residues 321-609) (Homo sapiens)?
6.1

----------
Biological target: human KEAP1 (N-term, residues 321-609) (Homo sapiens, UniProt Q14145);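 further: fluorescence polarization competition assay of Kelch domain binding to NRF2, 12-point 1:3 dilution series from 10 µM, read after 1 h at room temperature, floor 10 nM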
Sequence (Q14145 321-609): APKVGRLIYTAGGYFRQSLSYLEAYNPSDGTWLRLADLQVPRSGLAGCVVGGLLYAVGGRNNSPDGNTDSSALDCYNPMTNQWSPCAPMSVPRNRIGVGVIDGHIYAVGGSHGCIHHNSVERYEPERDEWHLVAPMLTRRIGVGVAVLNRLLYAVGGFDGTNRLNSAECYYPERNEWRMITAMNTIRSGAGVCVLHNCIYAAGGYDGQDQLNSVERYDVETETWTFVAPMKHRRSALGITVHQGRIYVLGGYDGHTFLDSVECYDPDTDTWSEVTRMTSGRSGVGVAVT
Assay: biochemical
I'd appreciate it if you could supply IC50 values for the items below.
Please respond with the number in nM and leave the unit unwritten.

Entry under review: "Cn1nnc2cc(COc3ccc(Cl)c4c3[C@@H](CN3CCCC3=O)N(C(=O)[C@@H]3CCCC[C@@H]3C(=O)O)CC4)ccc21" . Reported IC50?
9.1

Entry under review: "COc1cc(COc2ccc(Br)c3c2[C@@H](CN2Cc4ccccc4C2=O)N(C(=O)[C@@H]2CCCC[C@@H]2C(=O)O)CC3)cc2nnn(C)c12" . Reported IC50?
13

Entry under review: "Cn1nnc2cc(COc3ccc(Cl)c4c3[C@@H](CN3Cc5ccccc5C3=O)N(C(=O)[C@@H]3CCCC[C@@H]3C(=O)O)CC4)ccc21" . Reported IC50?
8

Entry under review: "CC(C)n1cc(COc2cccc3c2[C@@H](CN2Cc4ccccc4C2=O)N(C(=O)[C@@H]2CCCC[C@@H]2C(=O)O)CC3)nn1" . Reported IC50?
9.7

Entry under review: "Cn1nnc2cc(COc3cccc4c3[C@@H](CN3Cc5ccccc5C3=O)N(C(=O)[C@@H]3CCCC[C@@H]3C(=O)O)CC4)ccc21" . Reported IC50?
10

Entry under review: "Cc1nc(COc2ccc(Br)c3c2[C@@H](CN2Cc4ccccc4C2=O)N(C(=O)[C@@H]2CCCC[C@@H]2C(=O)O)CC3)no1" . Reported IC50?
9.1

Entry under review: "O=C(O)[C@H]1CCCC[C@H]1C(=O)N1CCc2c(Cl)ccc(OCc3ccccn3)c2[C@H]1CN1CCCC1=O" . Reported IC50?
6.9

Entry under review: "Cn1nnc(COc2ccc(Cl)c3c2[C@@H](CN2CCCC2=O)N(C(=O)[C@@H]2CCCC[C@@H]2C(=O)O)CC3)c1C(F)F" . Reported IC50?
7.7

Entry under review: "Cc1cc(C(=O)NCCOc2cccc3c2[C@@H](CN2C(=O)c4ccccc4C2=O)N(C(=O)[C@@H]2CCCC[C@@H]2C(=O)O)CC3)no1" . Reported IC50?
12

Entry under review: "Cc1noc(COc2ccc(Cl)c3c2[C@@H](CN2CCCC2=O)N(C(=O)[C@@H]2CCCC[C@]2(C)C(=O)O)CC3)n1" . Reported IC50?
16

Entry under review: "COCc1c(COc2ccc(Cl)c3c2[C@@H](CN2C[C@H](C)CC2=O)N(C(=O)[C@@H]2CCCC[C@]2(C)C(=O)O)CC3)nnn1C" . Reported IC50?
6.3
